Kindly find below IC50 information for UniProtKB Q06187 taken from the literature.
MEASUREMENT NAME: IC50 (nM)

CN1CCC2(C1)Nc1c(cnc3[nH]cc(C(=O)c4ccc(Oc5ccccc5)cc4Cl)c13)NC2=O (centres unmarked) | 19.4
COC[C@]1(C)Nc2c(cnc3[nH]cc(C(=O)c4ccc(Oc5cc(C)nc(Cl)c5)cc4Cl)c23)NC1=O | 58.9
C=CC(=O)N1CCCC[C@H]1C#Cc1c(N)ncnc1-c1cc(F)cc(-n2ccc3cc(C4CC4)cc(F)c3c2=O)c1C | 8.7
NS(=O)(=O)N1CCC(Nc2ccnc3[nH]cc(C(=O)c4ccc(Oc5ccccc5)cc4Cl)c23)CC1 | 141
COC[C@]1(C)Nc2c(cnc3[nH]cc(C(=O)c4ccc(Oc5ccccc5)cc4)c23)NC1=O | 28.2

a: COC1CCC2(C1)Nc1c(cnc3[nH]cc(C(=O)c4ccc(Oc5ccccc5)cc4Cl)c13)NC2=O (single isomer, unassigned)
b: O=C(c1ccc(Oc2ccccc2)cc1Cl)c1c[nH]c2ncc3c(c12)NC1(CCOCC1)C(=O)N3
c: COCCOCC1(C)Nc2c(cnc3[nH]cc(C(=O)c4ccc(Oc5ccccc5)cc4Cl)c23)NC1=O (single isomer, unassigned)
d: C/C=C/C(=O)Nc1cc2cc(c1)Nc1nccc(n1)-c1cccc(c1)COC/C=C/COC2
Problem: Sort the 4 molecules by IC50; largest first, smallest last. Write the labels in rank order as requested.
Result: d, c, a, b
(d: 238 nM, c: 45.8 nM, a: 14.7 nM, b: 7.6 nM)

1: CN(C)C1CCC2(C1)Nc1c(cnc3[nH]cc(C(=O)c4ccc(Oc5ccccc5)cc4Cl)c13)NC2=O (centres unmarked)
2: COC[C@]1(C)Nc2c(cnc3[nH]cc(C(=O)c4ccc(Oc5ccccc5)cc4F)c23)NC1=O (single isomer, unassigned)
Problem: Field: lower recorded IC50 (choose 1 or 2 ) Selection: enter the item's label.
Result: 1
(1: 12.9 nM, 2: 23.5 nM)
